- Target system: PKR K410E (Homo sapiens, UniProt P30613, K410E)
- Sequence (P30613 whole entry K410E): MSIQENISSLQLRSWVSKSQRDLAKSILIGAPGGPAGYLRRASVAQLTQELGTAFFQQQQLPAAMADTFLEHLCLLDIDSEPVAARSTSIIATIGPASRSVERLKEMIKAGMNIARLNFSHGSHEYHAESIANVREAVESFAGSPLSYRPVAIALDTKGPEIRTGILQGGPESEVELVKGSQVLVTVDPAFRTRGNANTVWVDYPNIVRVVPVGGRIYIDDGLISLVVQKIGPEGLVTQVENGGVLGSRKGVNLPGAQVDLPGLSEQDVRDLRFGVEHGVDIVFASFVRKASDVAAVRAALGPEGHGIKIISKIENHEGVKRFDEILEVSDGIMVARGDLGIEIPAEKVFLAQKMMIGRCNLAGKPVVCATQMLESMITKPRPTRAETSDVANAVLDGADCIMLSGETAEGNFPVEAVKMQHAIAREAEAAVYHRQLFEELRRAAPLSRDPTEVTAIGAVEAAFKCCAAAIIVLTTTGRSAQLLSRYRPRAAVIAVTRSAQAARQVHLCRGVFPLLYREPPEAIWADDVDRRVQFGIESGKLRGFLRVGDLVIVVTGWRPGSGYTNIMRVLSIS
- Method notes: PKR mutant assay (K410E), AC50, LDH/NADH-coupled, absorbance at 340 nm
- Type: biochemical
- Reported conditions: Table 2; enzyme assay
For each of the compounds below, state its AC50.

Worked examples, 3 compounds total:
Compound	AC50
COc1cccc(Cn2ncc3c4sc(Cc5ccc(Cl)cc5)nc4n(C)c3c2=O)c1 [Compound 31]	301 to 800 nM
COc1cccc(Cn2ncc3c4sc(C(F)(F)F)nc4n(C)c3c2=O)c1 [Compound 53]	< 300 nM
Cn1c2nc(C(c3cccc4[nH]ncc34)S(=O)(=O)c3ccccc3)sc2c2cnn(Cc3cccc4[nH]ncc34)c(=O)c21 (stereo not shown) [Compound 133]	> 800 nM

Pending compound:
Tell me AC50 reported for Cc1nc2c(s1)c1cnn(CO)c(=O)c1n2C [Compound 21]
> 800 nM
